Compiled notes: published Kd values involving UniProtKB P49841.
Sequence (P49841 whole entry): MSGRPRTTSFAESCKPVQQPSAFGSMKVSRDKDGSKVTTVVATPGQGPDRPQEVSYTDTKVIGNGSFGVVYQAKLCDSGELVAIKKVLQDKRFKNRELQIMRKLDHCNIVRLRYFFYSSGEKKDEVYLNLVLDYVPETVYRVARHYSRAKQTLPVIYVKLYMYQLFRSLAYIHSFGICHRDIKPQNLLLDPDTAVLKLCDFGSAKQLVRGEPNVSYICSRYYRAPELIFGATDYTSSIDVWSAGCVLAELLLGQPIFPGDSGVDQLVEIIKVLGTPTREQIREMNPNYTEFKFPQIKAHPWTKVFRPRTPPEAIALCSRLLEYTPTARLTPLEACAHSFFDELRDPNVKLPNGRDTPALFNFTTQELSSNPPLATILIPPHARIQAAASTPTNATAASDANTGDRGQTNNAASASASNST
just bin them by Kd: low range (below 500 nM), mid range (500 nM to below 3000 nM), high range (3000 nM or more)

>>> answer_label("Cc1ccc([N+](=O)[O-])cc1S(=O)(=O)N(C)/N=C/c1cnc2ccc(Br)cn12")
"low range"
>>> answer_label("CN1Cc2nn(C)c(C#N)c2-c2cnc3[nH]cc(c3c2)-c2cn(nc2C(F)(F)F)CCCC1=O")
"high range"
>>> answer_label("COc1ccc2c3ccnc(Cl)c3n(CC#N)c2c1")
"mid range"
>>> answer_label("Cc1nc2ccc(-c3cc(N)nc(N)c3)nc2n1C(C)C")
"high range"
>>> answer_label("c1ccc(-c2ccc3[nH]ncc3c2)cc1")
"mid range"
>>> answer_label("O=C1NC(=Nc2c(Cl)cccc2Cl)S/C1=C\\c1ccc2nccnc2c1")
"mid range"
>>> answer_label("CS(=O)(=O)CCCOc1cccc2c1ccn2-c1ccnc(N[C@H]2CC[C@H](C(=O)N3CCC(O)CC3)CC2)n1")
"high range"
>>> answer_label("O=c1[nH]c([C@@H]2CCCN2)nc2c1oc1ccc(Cl)cc12")
"high range"
>>> answer_label("CN1Cc2nn(C)c(C#N)c2-c2cnc3[nH]c(F)c(c3c2)-c2cn(nc2C(F)(F)F)CCCC1=O")
"mid range"
>>> answer_label("Cn1cc(-n2cnc3c(NCc4nc5cc(Cl)c(Cl)cc5[nH]4)nc(N4CCOCC4)nc32)cn1")
"mid range"
>>> answer_label("COC1=CC2C(=O)NC3=Cc4ccc(OC)cc4C(=C1OC)C32 (stereo not drawn)")
"low range"
>>> answer_label("C[C@H]1Nc2cccnc2NC1=O")
"high range"
>>> answer_label("O=C1NC(NC23CC4CC(CC(C4)C2)C3)=N/C1=C\\c1ccc2ncsc2c1")
"mid range"
>>> answer_label("COC(=N)c1nc2ccc3ncnc(Nc4ccc(OC)cc4F)c3c2s1")
"low range"
>>> answer_label("O=C1NC(Nc2ccccc2)=N/C1=C\\c1ccc2c(c1)OCO2")
"mid range"
>>> answer_label("Oc1ccc(-c2n[nH]c3ncc(-c4ccc(O)c(O)c4)cc23)cc1")
"low range"
>>> answer_label("Cc1n[nH]c2ncc(-c3nnc4n3[C@H](c3ccc(Cl)cc3)CC4)cc12")
"low range"
>>> answer_label("O=C(O)c1nc2ccccc2c2[nH]c3c(I)cccc3c12")
"low range"
